assay: Clearance in mouse at 5 mg/kg, iv and 40 mg/kg, po; format: ADME, organism-based; details: in vivo
result_type: clearance (mL/min/kg)

| record_smiles | unit_string | clearance |
| --- | --- | --- |
| Cn1cncc1-c1c2c(=O)n(C)c(=O)n(CC3CC3)c2nn1Cc1ccnc2ccc(Cl)cc12 | mL/min/kg | 14 |
| C#CCn1c(=O)c2c(-c3cncn3C)n(Cc3ccnc4ccc(Cl)cc34)nc2n(CC2CC2)c1=O | mL/min/kg | 20 |
| Cn1cc(S(C)(=O)=O)cc1-c1c2c(=O)n(C)c(=O)n(CC3CC3)c2nn1Cc1ccnc2ccc(Cl)cc12 | mL/min/kg | 15 |
